# Test system: Vero E6
# experiment notes: cell viability relative to DMSO; higher = less toxic
# condition description: 72 h; 10000 nM

{"compound": "Cc1ccc(C(=O)Nc2ccc(CN3CCN(C)CC3)c(C(F)(F)F)c2)cc1C#Cc1cnc2[nH]ncc2c1", "cell viability [%]": 0.2}
{"compound": "CCN(CC)C(=O)Nc1ccc(OCC(O)CNC(C)(C)C)c(C(C)=O)c1 (centres undefined)", "cell viability [%]": 97.3}
{"compound": "O=C1C=C2C=C[C@@H]3C[C@@]2(O1)[C@H]1CCCCN31", "cell viability [%]": 101}
{"compound": "CC(C)(C)c1ccc2cc(C#N)c(C#N)cc2c1", "cell viability [%]": 97.8}
{"compound": "CC[C@H](C)[C@H](N)C(=O)O", "cell viability [%]": 106}
{"compound": "CC1=C(C(=O)O)N2C(=O)[C@@H](NC(=O)[C@H](N)c3ccccc3)[C@H]2SC1", "cell viability [%]": 103}
{"compound": "CO[C@H]1/C=C/O[C@@]2(C)Oc3c(C)c(O)c4c(O)c(c(/C=N/N5CCN(C6CCCC6)CC5)c(O)c4c3C2=O)NC(=O)/C(C)=C\\C=C\\[C@H](C)[C@H](O)[C@@H](C)[C@@H](O)[C@@H](C)[C@H](OC(C)=O)[C@@H]1C", "cell viability [%]": 97.7}
{"compound": "COc1ccc(N(C(=O)Oc2c(C)cccc2C)c2ccnc(Nc3ccc(N4CCN(C)CC4)cc3)n2)c(OC)c1", "cell viability [%]": 84.8}
{"compound": "CCCC(C)(COC(N)=O)COC(=O)NC(C)C (centres undefined)", "cell viability [%]": 101}
{"compound": "CN1C(C(=O)Nc2ccccn2)=C(O)c2ccccc2S1(=O)=O", "cell viability [%]": 114}
{"compound": "CCCC(CCC)C(=O)NCC(N)=O [valrocemide]", "cell viability [%]": 101}
{"compound": "COc1ccc(C(=O)NCc2cccnc2)cc1C(=O)NCc1cccnc1 [picotamide]", "cell viability [%]": 103}
{"compound": "Nc1ncnc2c1c(-c1cnc3[nH]ccc3c1)nn2C1CCCC1", "cell viability [%]": 9.3}
{"compound": "CN(C)CCOC(c1ccccc1)c1ccccc1.Cn1c(=O)c2[nH]c(Cl)nc2n(C)c1=O [dimenhydrinate]", "cell viability [%]": 103}
{"compound": "CCCCCCCCCCCCCCCC(=O)OC(C)C [isopropyl-palmitate]", "cell viability [%]": 97.2}
{"compound": "COc1cnc(-c2ccc(Cn3c(CC(C)(C)C(=O)O)c(SC(C)(C)C)c4cc(OC[C@@H]5Cc6ccccc6N5C(C)=O)ccc43)cc2)nc1", "cell viability [%]": 128}
{"compound": "Nc1nccc(/C=C/c2ccccc2)n1", "cell viability [%]": 103}
{"compound": "COc1cc(Cc2cnc(N)nc2N)cc(OC)c1OC", "cell viability [%]": 96.4}
{"compound": "CNS(=O)(=O)CCc1ccc2[nH]cc(C3CCN(C)CC3)c2c1", "cell viability [%]": 96.7}
{"compound": "CCN1CCN(C(=O)Cc2ccc(Nc3ncc(F)c(Nc4ccc(C(=O)Nc5ccccc5Cl)cc4)n3)cc2)CC1", "cell viability [%]": 86.8}
{"compound": "CNC(=O)c1ccc2c(c1)CCO[C@H]2CCN1CCN(c2ccc(C(N)=O)cc2)CC1", "cell viability [%]": 107}
{"compound": "CC[C@H](C)C(=O)O[C@H]1C[C@H](O)C=C2C=C[C@H](C)[C@H](CC[C@@H](O)C[C@@H](O)CC(=O)O)[C@H]21 [PRAVASTATIN SODIUM]", "cell viability [%]": 105}
{"compound": "CC(C)NCC(O)COc1cccc2[nH]c3ccccc3c12 (centres undefined)", "cell viability [%]": 99.3}
{"compound": "N[C@@H](Cc1cc(I)c(Oc2ccc(O)c(I)c2)c(I)c1)C(=O)O", "cell viability [%]": 91.3}
{"compound": "OCCN1CCN(CCCN2c3ccccc3C=Cc3ccccc32)CC1", "cell viability [%]": 83.9}
{"compound": "CCCNC(C)C(=O)Nc1c(C)csc1C(=O)OC (centres undefined)", "cell viability [%]": 108}
{"compound": "COCC(=O)O[C@]1(CCN(C)CCCc2nc3ccccc3[nH]2)CCc2cc(F)ccc2[C@@H]1C(C)C", "cell viability [%]": 89}
{"compound": "COc1ccc(S(=O)(=O)Nc2cc(Cl)cc(Cl)c2OC)cc1N1CCNCC1", "cell viability [%]": 91.2}
{"compound": "CCN(CC)C(C)C(=O)c1ccccc1 (centres undefined)", "cell viability [%]": 86.8}
{"compound": "COCc1c(-c2ccc(NC(=O)Nc3cc(C(F)(F)F)ccc3F)c(F)c2)c2c(N)ncnn2c1CN1CCOCC1", "cell viability [%]": 24.8}
{"compound": "CC(C)NC(=N)NC(=N)Nc1ccc(Cl)cc1", "cell viability [%]": 94.7}
{"compound": "N[C@@H]1c2cccnc2[C@H](OC(=O)N2CCC(n3c(=O)[nH]c4ncccc43)CC2)CC[C@H]1c1cccc(F)c1F", "cell viability [%]": 112}
{"compound": "Cc1cc2c(C(C)C)c(O)c(O)c(C=O)c2c(O)c1-c1c(C)cc2c(C(C)C)c(O)c(O)c(C=O)c2c1O", "cell viability [%]": 13.1}
{"compound": "COc1cc2c(NC3CCN(C)CC3)nc(N3CCCN(C)CC3)nc2cc1OCCOCCN(C)C", "cell viability [%]": 96.9}

----------
# System: Caco-2
# experiment notes: cell viability relative to DMSO; higher = less toxic
# condition description: 72 h; 10 nM
assay endpoint: cell viability (%)

{"compound": "CCCCOc1ccc(CC/C=C2\\SC(=O)N(CCN)C2=O)cc1 [K145]", "unit annotation": "%", "endpoint value": 106}
{"compound": "CN(C)c1nc(N(C)C)nc(N(C)C)n1 [altretamine]", "unit annotation": "%", "endpoint value": 100}
{"compound": "Sc1ncnc2nc[nH]c12 [mercaptopurine]", "unit annotation": "%", "endpoint value": 103}
{"compound": "OCc1ccccc1O [salicyl-alcohol]", "unit annotation": "%", "endpoint value": 97.3}

----------
# System: HepG2
# experiment notes: relative viability EC50 (midpoint between 100% and the lowest measured viability); higher = less toxic
# condition description: 72 h
Reported values of relative viability EC50 for individual entries

{"molecule": "Nc1ncnc2c1C(=O)N(c1ccc([C@H]3CC[C@H](CC(=O)O)CC3)cc1)CCO2", "measured target": "HepG2", "relative viability EC50": "> 10 µM"}
{"molecule": "CC(C)CCNc1ncccc1C(=O)N1CCN(Cc2ccccc2)CC1 [NSI-189]", "measured target": "HepG2", "relative viability EC50": "> 10 µM"}
{"molecule": "CC(C)(C)C#Cc1cc(N(C(=O)[C@H]2CC[C@H](C)CC2)[C@H]2CC[C@@H](O)CC2)c(C(=O)O)s1 [VX-222]", "measured target": "HepG2", "relative viability EC50": "> 10 µM"}

----------
# System: U2OS
# experiment notes: drug sensitivity score (DSS) for viability; higher = more toxic; extreme values may be limits of the assay
# condition description: 72 h

{"compound": "CS(=O)(=O)N1CCc2c(-c3cnc(N)nc3)nc(N3CCOCC3)nc21", "drug sensitivity score": 4.2}
{"compound": "CCN(CC)C(=O)Nc1ccc(OCC(O)CNC(C)(C)C)c(C(C)=O)c1 (stereo not drawn)", "drug sensitivity score": 0}
{"compound": "CC(C)S(=O)(=O)NC[C@H](C)c1ccc(-c2ccc(CCNS(C)(=O)=O)cc2)cc1", "drug sensitivity score": 0}
{"compound": "COc1cc(-c2ccc(=O)[nH]n2)ccc1OC(F)F", "drug sensitivity score": 0}
{"compound": "CNS(=O)(=O)CCc1ccc2[nH]cc(C3CCN(C)CC3)c2c1", "drug sensitivity score": 0}
{"compound": "COc1ccc(N(C(=O)Oc2c(C)cccc2C)c2ccnc(Nc3ccc(N4CCN(C)CC4)cc3)n2)c(OC)c1", "drug sensitivity score": 0}
{"compound": "CC(=O)c1ccc2c(c1)[C@H](NC(=O)c1ccc(F)c(Cl)c1)[C@H](O)C(C)(C)O2", "drug sensitivity score": 0}
{"compound": "CS(=O)(=O)N1CCN(Cc2cc3nc(-c4cccc5[nH]ncc45)nc(N4CCOCC4)c3s2)CC1", "drug sensitivity score": 6.9}
{"compound": "N#Cc1ccnc(N2C(=O)CC[C@H]2C(=O)N(c2cncc(F)c2)[C@H](C(=O)NC2CC(F)(F)C2)c2ccccc2Cl)c1", "drug sensitivity score": 0}
{"compound": "CCn1c(=O)c(-c2cc[nH]n2)cc2c(C)nc(N)nc21", "drug sensitivity score": 3.1}
{"compound": "N[C@]1(C(=O)O)CC[C@@H](C(=O)O)C1 [cis-ACPD]", "drug sensitivity score": 0}
{"compound": "N[C@@H](Cc1cc(I)c(Oc2ccc(O)c(I)c2)c(I)c1)C(=O)O", "drug sensitivity score": 0}
{"compound": "CC(C)(C)c1ccc(NC(=O)N2CCN(c3ncccc3Cl)CC2)cc1", "drug sensitivity score": 0}
{"compound": "CS(=O)(=O)c1ccc(-c2cn3ccccc3n2)cc1", "drug sensitivity score": 0}
{"compound": "CC(C)Cc1ccc([C@@H](C)C(=O)NS(C)(=O)=O)cc1", "drug sensitivity score": 0}
{"compound": "CCN(CC)CCNC(=O)COc1ccc(OC)cc1 [mefexamide]", "drug sensitivity score": 0}
{"compound": "COCCCOc1ccnc(C[S+]([O-])c2nc3ccccc3[nH]2)c1C (stereo not drawn)", "drug sensitivity score": 0}
{"compound": "Oc1ccc(Cl)cc1Cc1cc(Cl)ccc1O", "drug sensitivity score": 0}
